biological target: Calcitonin-gene-related peptide receptor, CALCRL/RAMP1 (Homo sapiens, UniProt O60894+Q16602); assay: Displacement of [3H-propionyl-K24] from halphaCGRP expressed in human neuroblastoma SK-N-MC cells; format: cell-based
Sequence (O60894 whole entry): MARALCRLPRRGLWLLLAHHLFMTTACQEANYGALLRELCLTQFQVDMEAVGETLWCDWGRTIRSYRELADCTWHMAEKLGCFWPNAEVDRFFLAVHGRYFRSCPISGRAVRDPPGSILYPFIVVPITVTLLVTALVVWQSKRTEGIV
Sequence (Q16602 whole entry): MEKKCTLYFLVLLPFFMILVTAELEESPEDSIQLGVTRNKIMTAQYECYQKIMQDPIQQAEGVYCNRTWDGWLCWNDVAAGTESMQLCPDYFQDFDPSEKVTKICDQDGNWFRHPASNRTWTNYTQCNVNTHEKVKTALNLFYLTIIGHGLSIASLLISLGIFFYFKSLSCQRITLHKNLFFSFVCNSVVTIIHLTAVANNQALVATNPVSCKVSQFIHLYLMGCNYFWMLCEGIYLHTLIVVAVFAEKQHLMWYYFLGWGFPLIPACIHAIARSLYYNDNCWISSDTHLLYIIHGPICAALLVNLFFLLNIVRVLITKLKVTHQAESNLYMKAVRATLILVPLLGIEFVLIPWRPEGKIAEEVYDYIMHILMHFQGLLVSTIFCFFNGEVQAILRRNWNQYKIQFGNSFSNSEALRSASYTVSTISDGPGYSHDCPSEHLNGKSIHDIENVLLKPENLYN
pKi: −log10 of the molar value. *1 amine or outer side, *2 acyl side, *3 side chain or, on linkers, in order; H or OH if unused. Where a SMILES comes first, the peptide text is derived from it. [ ]: non-standard residue; d: D form. X2 = COC(=O)[C@@H]1[C@@H](N[*:1])[C@H]1C(=O)[*:2]
experimentalEndpoint: pKi

Task item: # return recorded pKi for entry CC(C)[C@H](NC(=O)[C@H](CC(=O)O)NC(=O)[C@@H](NC(=O)[C@@H]1Cc2ccccc2CN1C(=O)[C@@H](NC(=O)[C@@H](N)Cc1ccccc1)C(C)C)[C@@H](C)O)C(=O)NCC(=O)N1CCC[C@H]1C(=O)N[C@@H](Cc1ccccc1)C(=O)N[C@@H](C)C(=O)N[C@@H](Cc1ccccc1)C(=O)O
Reply: 10.70

Task item: # return recorded pKi for entry COC(=O)[C@@H]1[C@@H](NC(=O)CNC(=O)[C@@H](NC(=O)[C@H](CC(=O)O)NC(=O)[C@@H](NC(=O)[C@@H]2CCCN2C(=O)[C@@H](NC(=O)[C@@H](N)Cc2ccccc2)C(C)C)[C@@H](C)O)C(C)C)[C@H]1C(=O)N[C@@H](Cc1ccccc1)C(=O)N[C@@H](C)C(=O)N[C@@H](Cc1ccccc1)C(=O)O (H-FVPTDVG[X2]FAF-OH)
Reply: < 5.00

Task item: # return recorded pKi for entry COC(=O)[C@@H]1[C@@H](NC(=O)[C@@H](NC(=O)[C@@H](N)Cc2ccccc2)C(C)C)[C@H]1C(=O)N[C@H](C(=O)N[C@@H](CC(=O)O)C(=O)N[C@H](C(=O)NCC(=O)N1CCC[C@H]1C(=O)N[C@@H](Cc1ccccc1)C(=O)N[C@@H](C)C(=O)N[C@@H](Cc1ccccc1)C(=O)O)C(C)C)[C@@H](C)O
Reply: < 5.00
